Test readout: melting point

Answered cases to consult:
{"Compound": "Cc1cn(C2CC3OCC3O2)c(=O)[nH]c1=O (stereo not drawn)", "melting point": "188 to 190 °C"}
{"Compound": "COc1cc(C(=O)NS(=O)(=O)c2ccccc2Cl)ccc1Cc1cn(C)c2ccc(CCNC(=O)N(C)C)cc12", "melting point": "208 to 211 °C"}

Pending compound:
Which melting point value is on record for CC(=O)c1ccc(NS(=O)(=O)c2ccc3c(c2)-c2c(nc(C)[nH]c2=O)CC3)cc1 ? > 240 °C

====

We begin with a simple list: items and their reported melting point.

{"Compound": "COC(=O)CCCCC(O)c1ccc(CCc2ccccc2)cc1 (stereo not drawn)", "melting point": "56 to 58 °C"}

Entry COc1ccc(-n2nc(Cl)cc2-c2ccc(OCCNC(N)=O)cc2)cc1 has what melting point? 140 to 142 °C

Request the reported melting point associated with CSc1nnc(-c2ccc3ncn(-c4ccc(OC(F)(F)F)cc4)c3c2)o1 200 to 201 °C

====

Test readout: melting point

Reference set, count: 2
{"Compound": "O=C(O)c1cn(CCO)nc1[N+](=O)[O-]", "melting point": "147 to 149 °C"}
{"Compound": "CNc1ccc(-c2ocnc2-c2cc(OC)cc(OC)c2)cc1F", "melting point": "140 to 142 °C"}

Return reported melting point; argument: O=C(O)C1(C(=O)Nc2cc(Cl)cc(Cl)c2)CCC1 159 to 160 °C

Sample O=C(O)CNc1csc2ccccc12 — what was its melting point? 195 to 198 °C

Query (compound): Cc1ccc(C#Cc2cccc(N)c2)cc1 ; field requested: melting point 88 °C

Record request: melting point value, item CC(C)CCCc1c(C(C)C)nc(C(C)C)c(CO)c1-c1ccc(F)cc1 101 to 103 °C

What value of measured melting point is listed for CCN(CC)C(=O)C(C)Oc1nc(-c2ccccc2)cc2ccccc12 (configuration not stated) ? 117 °C

Which melting point is listed for CC(C)c1cc(O)n(C)n1 ? 120 to 122 °C

Find the recorded melting point belonging to O=c1cc(N2CCOCC2)oc2c(-c3cccc(O)c3)cccc12 and report it. 203 to 205 °C

Value lookup for melting point; key = COc1cccc(Sc2c(O)c3ccc(Cl)cc3[nH]c2=O)c1 199 to 200 °C

Value lookup for melting point; key = Cn1c(-c2ccc(-c3cncs3)cc2)cnc1[C@H](Cc1ccccn1)N(C=O)c1cc2cc(Cl)ccc2o1 165 to 167 °C

Entry CC1SC(=O)NN=C1c1ccc2c(c1)C(C)(C)C(=O)N2C(=O)c1cccnc1 (configuration not stated) : reported melting point = ? 245 °C

====

Parameter melting point: see the listing below.

{"Smiles representation": "CC(C)[C@]1(c2ccccc2OCC#CCCl)Sc2ccccc2N(C)C1=O", "Test readout": "melting point", "Result": "136 °C"}
{"Smiles representation": "CS(=O)(=O)NCCCn1c(-c2ccc(Br)cc2)csc1=Nc1ccccc1", "Test readout": "melting point", "Result": "128 to 134 °C"}
{"Smiles representation": "COc1ccc(C(=Cn2cc[nH]c2=O)CC(=O)O)cc1OC1CCCC1", "Test readout": "melting point", "Result": "194 °C"}
{"Smiles representation": "Cc1cc(C)cc(C(=O)c2c(C(C)C)c(=O)[nH]c(=O)n2CC2CCCC2)c1", "Test readout": "melting point", "Result": "167 to 168 °C"}

Endpoint output: melting point of CCNc1ccc(Cc2ccc(NCC)c3ccccc23)c2ccccc12 . Value? 165 to 168 °C

# query: melting point of entry Oc1ccc(N2CCN(c3nc4ccccc4o3)CC2)cc1 161 to 163 °C

Dear colleague, I am looking for the recorded melting point of the following compound: COc1ccc(-n2nc(Sc3ccc(Cl)cc3)c(C)c(C#N)c2=O)cc1 146 to 148 °C

Fill in: melting point of Cc1cc(N2CN=C(C(F)(F)F)O2)cc(C)c1OCCCc1ccc(C(C)(F)F)nn1 is ___ 54.5 °C

Can you look up the measured melting point of CCN1CCc2cc(Nc3ncc(Cl)c(Nc4ccccc4C(=O)NC)n3)c(OC)cc2CC1 for me? 195 to 211 °C

Endpoint output: melting point of Cc1ccc(CCc2cc3c(s2)-n2c(C)nnc2CN=C3c2ccccc2Cl)cc1 . Value? 160 to 162 °C

====

The entries below come with measured melting point values attached.

Before answering, review these 2 worked examples.
{"Compound": "C=CCNC(=O)Oc1cc(-n2c(=O)cc(C(F)(F)F)n(C)c2=O)c(F)cc1Cl", "Test readout": "melting point", "Result": "98 to 100 °C"}
{"Compound": "CCCCN(C(=O)c1ccc(Cl)cc1)[C@@H]1CN(CC)C[C@H]1O (relative stereo)", "Test readout": "melting point", "Result": "96.5 to 98 °C"}

melting point lookup needed for O=C1c2ccccc2S(=O)(=O)N1c1c(F)c(F)nc(F)c1F , thanks. 164 to 165 °C

Give its melting point value. Item: C=CCc1cc2c(c(O)c1C)C(=O)c1c(OC)c3c(c(O)c1C2=O)-c1c(cc2cnn(-c4ccccc4)c(=O)c2c1O)CC3 163 °C

Tell me the measured melting point of CN(C)CCNC(=O)[C@H]1C[C@H](NC(=O)Cc2ccccc2)c2c(Cl)cc(Cl)cc2N1 (relative stereo) , please. 158 to 159 °C

If you can, please state the reported melting point value of CCOc1ccc2nc(CO)n(C)c2n1 . 161 °C

Could you tell me which melting point is on file for Cc1ccc(C(=S)Oc2ccc(C(=O)O)cc2)cc1C12CC3CC(CC(C3)C1)C2 ? 276 to 277 °C

====

# melting point annotations

Worked cases, melting point given:
{"Compound": "COc1cc(CCNC(=O)[C@@H](N)C(C)C)ccc1OCC#Cc1ccc(Cl)cc1", "melting point": "115 to 117 °C"}
{"Compound": "CC(C)NC(=O)c1ccc(C(=O)N2CCN(c3ncccc3N)CC2)nc1", "melting point": "142 to 143 °C"}
{"Compound": "CCCCCCCOc1c(C)cc2[nH]c(S(=O)Cc3ncc(C)c(OC)c3C)nc2c1C (stereo unspecified)", "melting point": "116 °C"}
{"Compound": "CC(C)Nc1nc2c(Cl)cc(Cl)cc2n1[C@H]1O[C@@H](CO)[C@H](O)[C@@H]1O", "melting point": "212 to 214 °C"}
{"Compound": "CC(C)(C)c1cc(-c2n[nH]c(=S)s2)cc(C(C)(C)C)c1O", "melting point": "190 to 191 °C"}

Now look at this entry.
Recorded melting point of CCC1(C)CC2(C(=O)N(C)C(=O)N2C)C(C)C(C)(CC)N1C (stereo unspecified) , please. 77 to 88 °C

====

Test readout: melting point

{"Compound": "CC(C)(C)c1cccc(S(=O)(=O)n2c(C(O)c3ccc(C(=O)O)cc3)cc3cc(C(F)(F)F)ccc32)c1 (racemic)", "Result": "110 °C"}

# melting point lookup, item O=C(O)COc1ccc(-c2cc(O)c(SCCc3ccccc3)c(=O)o2)cc1 182 to 183 °C

Which melting point reading was recorded for the compound CSc1nc(C#N)c(C#N)nc1SC ? 139 to 142 °C

Which melting point value is on record for COc1cc(OC)c2c(=O)[nH]c(-c3cc(C)c(OC)c(C)c3)cc2n1 ? 262 to 263 °C

I am curious: what melting point value has been reported for COC(=O)c1cc(C(=O)NNC(C)=O)c2cc(Cc3ccc(F)cc3)cnc2c1O ? 208 to 209 °C

====

Each record here notes measured melting point.

Some solved cases for reference:
{"Molecule": "OC1CSC(Oc2cnc(-c3cncnc3)c(F)c2)C(O)C1O (configuration not stated)", "melting point": "192 °C"}
{"Molecule": "COc1c2c(c(OC)c(OC)c1OC)CCC(CCI)CC2", "melting point": "75 to 82 °C"}
{"Molecule": "CCCS(=O)(=O)c1ccc(NS(=O)(=O)c2cccs2)c2[nH]c(C(=O)O)cc12", "melting point": "247 to 248 °C"}

Entry CN(C)C=CC(=O)c1ccc(C(=O)N2Cc3ccnn3Cc3ccccc32)cc1 : reported melting point = ? 225 to 230 °C

So what does the record say about melting point for C=CC(COC(c1ccccc1)(c1ccccc1)c1ccccc1)OCCCCCCCCCCCCCCCC (configuration not stated) ? 34 °C

Quick one: melting point for COC(=O)c1c(C(=O)OC)c(-c2ccccc2)c(C(=O)O)c(C(=O)O)c1-c1ccccc1 ? 196 to 198 °C

If you can, please state the reported melting point value of O=C1Nc2cc(F)ccc2C1c1ncnc2c1cnn2C1CCCC1 (configuration not stated) . 230 to 233 °C

Record request: melting point value, item N#CCCCN1CCN(c2nc3nccc(-c4ccncc4)n3n2)CC1 147 to 148 °C

Requested read-out: melting point. Entry: CCc1cc2c(OCC(=O)OC)cccc2n1Cc1ccccc1 89 to 92 °C

If you can, please state the reported melting point value of CC1(C)C2CCC1(C)C(C(=O)OC(CSc1ccccc1)(C(=O)Nc1ccc(C#N)c(C(F)(F)F)c1)C(F)(F)F)C2 (configuration not stated) . 140 to 143 °C

What value of measured melting point is listed for O=S(=O)(c1ccccc1)n1c2ccc(C=Cc3ccccc3)cc2c2c(Cl)ccnc21 ? 216 to 218 °C

Can you look up the measured melting point of CCOC(=O)C1OC1C(=O)NC(CC(C)C)C(=O)NCCC(C)CO (configuration not stated) for me? 92 to 95 °C

Data origin, for the record: a melting point compilation (Tetko et al.; mined from patent text by program, amines drawn as free bases though some values may be those of a salt)
